Tested on: PANC-1
Test: Cytotoxicity against human PANC1 cells assessed as reduction in cell viability by MTT assay
Type: functional, cell-based
endpoint.label: IC50

Dear colleague, I am looking for the recorded IC50 of the following compound: COc1cc(Cl)ccc1NS(=O)(=O)c1ccc2oc(=O)ccc2c1 4.63 to 7.02 µM

* * *

Below is a list of entries, each paired with its recorded pIC50 value.
Tested on: MDA-MB-231
Assay: Cytotoxicity against human MDA-MB-231 cells assessed as reduction in cell viability
Format: functional, cell-based
pIC50: −log10 of the molar value.

COC(=O)c1cc2cc(-c3nc4cc(C)ccn4c3NC(C)(C)C)cc(C(C)C)c2oc1=O ... 4.37 to 4.85

Dear colleague, I am looking for the recorded pIC50 of the following molecule: CCOC(=O)c1cc2cc(-c3nc4cc(C)ccn4c3NC(C)(C)C)cc(C(C)C)c2oc1=O 4.30 to 4.85

* * *

Test system: HepG2
Assay: Antiproliferative activity against human HepG2 cells after 72 hrs by ELISA
Type: functional, cell-based
Details: HepG2, 72 h
endpoint.label: IC50

Dear colleague, I am looking for the recorded IC50 of the following molecule: C/C(=N\NC1=NC(=O)C(C)S1)c1ccc(NS(=O)(=O)c2ccc3oc(=O)ccc3c2)cc1 (stereo not drawn) 5.03 to 175 µM

Please do the same for C/C(=N\Nc1c(Cl)cc(Cl)cc1Cl)c1ccc(NS(=O)(=O)c2ccc3oc(=O)ccc3c2)cc1 as well. 5.03 to 175 µM

Please do the same for C/C(=N\Nc1nc(C)c(-c2ccccc2)s1)c1ccc(NS(=O)(=O)c2ccc3oc(=O)ccc3c2)cc1 as well. 3.48 µM

* * *

Tested on: A549
Test: Cytotoxicity against human A549 cells assessed as reduction in cell viability by SRB assay
Assay type: functional, cell-based
endpoint.label: IC50

Cc1cc(=O)oc2cc(OCCOCCN3C(=O)C(=O)c4cc(Cl)ccc43)ccc12 ... 10.3 to 50 µM
Cc1cc(=O)oc2cc(OCCOCCN3C(=O)/C(=N\O)c4cc(Cl)ccc43)ccc12 ... 10.3 to 50 µM
CO/N=C1\C(=O)N(CCOCCOc2ccc3c(C)cc(=O)oc3c2)c2ccc(F)cc21 ... 10.3 to 50 µM

Lab note: need IC50 with A549 for entry Cc1ccc2c(c1)/C(=N/O)C(=O)N2CCOCCOc1ccc2c(C)cc(=O)oc2c1 , please look it up. 10.3 to 50 µM

Please do the same for Cc1cc(=O)oc2cc(OCCOCCN3C(=O)C(=O)c4cc(F)ccc43)ccc12 as well. 10.3 to 50 µM

* * *

Below is a list of entries, each paired with its recorded pIC50 value.
Test system: A549
Experiment: Cytotoxicity against human A549 cells assessed as reduction in cell viability by MTT assay
Assay type: functional, cell-based
pIC50: −log10 of the molar value.

COc1cc(Cl)ccc1NS(=O)(=O)c1ccc2oc(=O)ccc2c1 ... 5.15 to 5.33
O=C(CNCc1cccnc1)Nc1cc2ccccc2oc1=O ... 3.42 to 4.16
COc1cccc2c1C(=O)c1c(O)c3c(c(O)c1C2=O)C[C@@](O)(C(=O)CO)C[C@@H]3O[C@H]1C[C@H](N)[C@H](O)[C@H](C)O1 [DOXORUBICIN] ... 5.67 to 6.09
COc1ccc2oc(=O)c(/C=C3\SC(=O)N(C(=O)c4ccc(Cl)cc4)C3=O)cc2c1 ... 5.49 to 6.02

Turning to the following molecule.
Dear colleague, I am looking for the recorded pIC50 of the following molecule: Cc1cc(=O)oc2cc(NC(=O)CNCc3cccnc3)ccc12 3.42 to 4.16

* * *

Test system: A549
Experiment: Cytotoxicity against human A549 cells assessed as reduction in cell viability after 24 hrs by MTT assay
Type: functional, cell-based
Details: A549, 24 h
endpoint.label: IC50

O=C(Cn1nc(Cc2ccccc2Br)[nH]c1=O)NNC(=O)c1cc2cc(Cl)cc(Cl)c2oc1=O ... 3.1 to 37.9 µg/mL
Cc1cccc(-c2cc(-c3cc4ccccc4oc3=O)nc(Cc3ccc(F)cc3)n2)c1 ... 2.15 to 28.6 µM
COc1ccc(-c2cc(-c3cc4ccccc4oc3=O)nc(Cc3ccc(F)cc3)n2)cc1 ... 2.23 µM
COc1cccc2c1C(=O)c1c(O)c3c(c(O)c1C2=O)C[C@@](O)(C(=O)CO)C[C@@H]3O[C@H]1C[C@H](N)[C@H](O)[C@H](C)O1 ... 3.97 to 5.13 µM
O=c1oc2ccccc2cc1-c1cc(-c2ccccc2Br)nc(Cc2ccc(F)cc2)n1 ... 2.15 to 28.6 µM
O=C(Cn1nc(Cc2ccc(Br)cc2)[nH]c1=O)NNC(=O)c1cc2cc(Cl)cc(Cl)c2oc1=O ... 3.1 to 37.9 µg/mL

Turning to the following compound.
Dear colleague, I am looking for the recorded IC50 of the following compound: CCN(CC)c1ccc2cc(C(=O)NNC(=O)Cn3nc(Cc4ccc(Cl)c(Cl)c4)[nH]c3=O)c(=O)oc2c1 3.1 to 37.9 µg/mL

* * *

Test system: T-24
Test: Growth inhibition of human T24 cells
Assay type: functional
Below is a list of entries, each paired with its recorded GI50 value.

Check out these entries, answers already filled in.
Cc1cc2nc(-c3cc4ccccc4oc3=O)[nH]c2cc1C ... 70 to 3570 nM
Cc1ccc2[nH]c(-c3cc4ccccc4oc3=O)nc2c1 ... 70 to 3570 nM

Dear colleague, I am looking for the recorded GI50 of the following compound: CCN(CC)c1ccc2cc(-c3nc4ccccc4n3C)c(=O)oc2c1 70 to 410 nM

Please do the same for COc1ccc2oc(=O)c(-c3nc4cc(OC)ccc4[nH]3)cc2c1 as well. 70 to 3570 nM

* * *

Below is a list of entries, each paired with its recorded pIC50 value.
System: Caco-2
Assay: Antiproliferative activity against human Caco2 cells after 72 hrs by ELISA
Assay type: functional, cell-based
Details: Caco-2, 72 h
pIC50: −log10 of the molar value.

Check out these entries, answers already filled in.
C/C(=N\Nc1ccccc1)c1ccc(NS(=O)(=O)c2ccc3oc(=O)ccc3c2)cc1 ... 5.07
C/C(=N\NC1=NC(=O)C(C)S1)c1ccc(NS(=O)(=O)c2ccc3oc(=O)ccc3c2)cc1 (stereo not drawn) ... 3.76 to 5.30

Turning to the following molecule.
Dear colleague, I am looking for the recorded pIC50 of the following molecule: C/C(=N\Nc1nc(C)c(-c2ccccc2)s1)c1ccc(NS(=O)(=O)c2ccc3oc(=O)ccc3c2)cc1 3.76 to 5.30

* * *

Test system: HepG2
Experiment: Antiproliferative activity against human HepG2 cells after 72 hrs by ELISA
Type: functional, cell-based
Conditions: HepG2, 72 h
Below is a list of entries, each paired with its recorded IC50 value.
Give just the number in µM; leave the unit off.

C/C(=N\NC1=NC(=O)CS1)c1ccc(NS(=O)(=O)c2ccc3oc(=O)ccc3c2)cc1 ... 5.03

Dear colleague, I am looking for the recorded IC50 of the following compound: COc1cccc2c1C(=O)c1c(O)c3c(c(O)c1C2=O)C[C@@](O)(C(=O)CO)C[C@@H]3O[C@H]1C[C@H](N)[C@H](O)[C@H](C)O1 4.1

* * *

Test system: A549
Assay: Cytotoxicity against human A549 cells assessed as reduction in cell viability after 24 hrs by MTT assay
Type: functional, cell-based
Settings: A549, 24 h
Below is a list of entries, each paired with its recorded IC50 value.

Check out these entries, answers already filled in.
COc1cccc(-c2cc(-c3cc4ccccc4oc3=O)nc(Cc3ccc(F)cc3)n2)c1 ... 2.15 to 28.6 µM
O=c1oc2ccccc2cc1-c1cc(-c2cccc(Br)c2)nc(Cc2ccc(F)cc2)n1 ... 2.15 to 28.6 µM
CC(C)=CC[C@@H](O)C1=CC(=O)c2c(O)ccc(O)c2C1=O ... 6.5 to 10.4 µM
O=c1oc2ccccc2cc1-c1cc(-c2cccc(Cl)c2)nc(Cc2ccc(F)cc2)n1 ... 2.15 to 28.6 µM

Turning to the following compound.
Dear colleague, I am looking for the recorded IC50 of the following compound: O=C(Cn1nc(Cc2ccc(Cl)c(Cl)c2)[nH]c1=O)NNC(=O)c1cc2cc(Cl)ccc2oc1=O 3.1 to 37.9 µg/mL

* * *

Test system: A2780
Assay: Anticancer activity against human A2780 cells by CCK8 assay
Type: functional, cell-based
endpoint.label: IC50

Check out these entries, answers already filled in.
O=c1ccc2ccccc2o1 ... > 100 µM
CCN(CC)c1ccc2cc(C(=O)N3CCN(CCC[C@H]4O[C@@H]5O[C@@]6(C)CC[C@H]7[C@H](C)CC[C@@H]([C@H]4C)[C@@]57OO6)CC3)c(=O)oc2c1 ... 3.05 to 5.82 µM
CCN(CC)c1ccc2cc(C(=O)N3CCN(C(=O)CN4CCN(CCC[C@H]5O[C@@H]6O[C@@]7(C)CC[C@H]8[C@H](C)CC[C@@H]([C@H]5C)[C@@]68OO7)CC4)CC3)c(=O)oc2c1 ... 2.33 to 23.7 µM

Turning to the following compound.
Dear colleague, I am looking for the recorded IC50 of the following compound: CCN(CC)c1ccc2cc(C(=O)NCCNC(=O)CN3CCN(CCC[C@H]4O[C@@H]5O[C@@]6(C)CC[C@H]7[C@H](C)CC[C@@H]([C@H]4C)[C@@]57OO6)CC3)c(=O)oc2c1 2.33 to 23.7 µM

FYI, the data here is from ChEMBL document CHEMBL4373717.
